Attribution: ChEMBL document CHEMBL1157308

Tested on: A549
ASSAY: Cytotoxicity against human A549 cells
Type: functional, cell-based
MEASUREMENT LABEL: IC50 (nM)
Give the quantity in nM, number only.

Enquiry: Please give the measured IC50 for this molecule: "C[C@@H]1CN2C[C@H]3CCC4=C5[C@@](O)(CC[C@@]56C(=O)[C@@H]1C[C@@H]2[C@@]36C)CC4=O"
Return: 600
